Every entry's value here was drawn from patent US7294637B2.

target: DAT (Homo sapiens); test: cell-based; details: hDAT cell line; read-out: DA Uptake, Functional Assays (antagonism, EC50)
Sequence (Q01959 whole entry): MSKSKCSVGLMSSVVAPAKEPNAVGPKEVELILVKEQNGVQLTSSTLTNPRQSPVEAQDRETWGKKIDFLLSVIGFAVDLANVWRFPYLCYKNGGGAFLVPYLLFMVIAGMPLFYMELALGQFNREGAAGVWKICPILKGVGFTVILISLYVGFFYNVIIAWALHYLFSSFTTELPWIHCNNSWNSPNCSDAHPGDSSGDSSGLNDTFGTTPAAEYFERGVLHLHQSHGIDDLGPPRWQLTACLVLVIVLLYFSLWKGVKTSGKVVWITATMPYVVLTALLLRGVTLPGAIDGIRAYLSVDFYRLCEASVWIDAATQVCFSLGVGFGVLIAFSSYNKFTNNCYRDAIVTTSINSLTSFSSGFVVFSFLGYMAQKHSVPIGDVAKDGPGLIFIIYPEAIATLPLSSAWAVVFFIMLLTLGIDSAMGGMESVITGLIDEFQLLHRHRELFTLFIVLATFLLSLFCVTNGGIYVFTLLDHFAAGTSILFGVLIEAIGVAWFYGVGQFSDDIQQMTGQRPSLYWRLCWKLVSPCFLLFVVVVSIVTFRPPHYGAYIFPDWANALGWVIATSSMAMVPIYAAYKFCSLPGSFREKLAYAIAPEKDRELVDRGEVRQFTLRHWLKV
This listing pairs molecules with measured EC50.
MEASURE NAME: EC50

>>> assay_result("Clc1ccc(C2(CN3CCCC(COc4ccc5c(c4)OCO5)C3)CCC2)cc1 (centres unmarked)")
"< 10 nM"
>>> assay_result("OCC1CCCN(CC2(c3ccc(Cl)cc3)CCC2)C1 (centres unmarked)")
"< 100 nM"
>>> assay_result("FC(F)(F)c1ccc(COC[C@@H]2CCCN(CC3(c4ccc(Cl)cc4)CCC3)C2)cc1")
"< 10 nM"
>>> assay_result("FC(F)(F)c1ccc(OCC2CN(CC3(c4ccc(Cl)cc4)CCC3)CCO2)cc1 (centres unmarked)")
"< 10 nM"
>>> assay_result("O=C(CN1CCC[C@@H](COc2ccc(C(F)(F)F)cc2)C1)C1(c2ccc(Cl)cc2)CCC1")
"< 10 nM"
>>> assay_result("Clc1ccc(C2(CN3CCCC(COc4ccccc4)C3)CCC2)cc1 (centres unmarked)")
"< 1000 nM"
>>> assay_result("OC(CN1CCCC(COc2ccc(C(F)(F)F)cc2)C1)C1(c2ccccc2OC(F)(F)F)CCC1 (single isomer, unassigned) [compound 225]")
"> 1000 nM"
>>> assay_result("O[C@H](CN1CCC[C@H](COc2ccc(C(F)(F)F)cc2)C1)C1(c2ccc(Cl)cc2)CCC1")
"< 10 nM"

---

biological target: UniProt Q01959; assay: DA uptake: displacement of dopamine ligands in vitro (methods of Gu et al.); conditions: DA Uptake, Uptake Profile (IC50, nM), displacement of dopamine ligands in vitro
MEASURE NAME: IC50

>>> assay_result("OC(CN1CCCC(CCc2ccc(C(F)(F)F)cc2)C1)c1ccc(Cl)cc1 (single isomer, unassigned) [compound 154]")
"< 10 nM"
>>> assay_result("Clc1ccc(C2(CN3CCCC(COc4ccccc4)C3)CCC2)cc1 (stereo not shown) [compound 4]")
"< 1000 nM"
>>> assay_result("Fc1ccc(OC[C@@H]2CCCN(CC3(c4ccc(Cl)cc4)CCC3)C2)cc1 [compound 133]")
"< 1000 nM"
>>> assay_result("OC(CN1CCCC(CCc2ccc(C(F)(F)F)cc2)C1)c1ccc(Cl)cc1 (single isomer, unassigned) [compound 153]")
"< 100 nM"
>>> assay_result("FC(F)(F)c1ccc(OCC2CCCN(CC3COc4ccccc4O3)C2)cc1 (single isomer, unassigned) [compound 176]")
"< 1000 nM"
>>> assay_result("Fc1ccc(OCC2CCCN(CC3(c4ccc(Cl)cc4)CCC3)C2)cc1 (stereo not shown) [compound 86]")
"< 100 nM"
>>> assay_result("OC(C[C@H]1CCCN(CC2(c3ccc(Cl)cc3)CCC2)C1)c1ccccc1 (stereo in doubt) [compound 182]")
"< 100 nM"

---

molecular target: norepinephrine transporter (Homo sapiens); experiment: NE uptake: displacement of norephinephrine ligands in vitro (methods of Galli et al.); format: binding; conditions: NE Uptake, Uptake Profile (IC50, nM)
Sequence (P23975 whole entry): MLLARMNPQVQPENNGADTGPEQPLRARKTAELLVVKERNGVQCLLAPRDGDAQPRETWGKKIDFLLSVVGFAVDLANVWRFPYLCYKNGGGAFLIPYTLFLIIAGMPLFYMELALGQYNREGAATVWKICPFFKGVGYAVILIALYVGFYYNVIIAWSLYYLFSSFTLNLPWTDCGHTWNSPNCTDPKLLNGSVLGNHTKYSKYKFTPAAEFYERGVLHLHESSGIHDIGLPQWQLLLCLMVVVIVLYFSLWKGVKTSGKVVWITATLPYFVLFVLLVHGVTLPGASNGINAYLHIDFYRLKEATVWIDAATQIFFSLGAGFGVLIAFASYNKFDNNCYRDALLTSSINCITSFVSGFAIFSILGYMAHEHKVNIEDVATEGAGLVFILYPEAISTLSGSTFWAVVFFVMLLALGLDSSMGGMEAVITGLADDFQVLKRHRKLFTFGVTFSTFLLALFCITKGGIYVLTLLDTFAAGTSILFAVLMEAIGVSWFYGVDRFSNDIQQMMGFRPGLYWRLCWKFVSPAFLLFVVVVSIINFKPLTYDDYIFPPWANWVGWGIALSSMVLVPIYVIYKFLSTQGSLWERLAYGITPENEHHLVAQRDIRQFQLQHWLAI
MEASURE NAME: IC50

>>> assay_result("O[C@H](CN1CCC[C@@H](COc2ccc(C(F)(F)F)cc2)C1)C1(c2ccc(Cl)cc2)CCC1 [compound 126]")
"< 100 nM"
>>> assay_result("OC(CN1CCCC(COc2ccccc2)C1)C1(c2ccc(Cl)cc2)CCC1 (stereo not drawn) [compound 21]")
"< 100 nM"
>>> assay_result("CO[C@@H](CN1CCC[C@@H](COc2ccc(C(F)(F)F)cc2)C1)C1(c2ccc(Cl)cc2)CCC1 [compound 160]")
"> 1000 nM"
>>> assay_result("OC(CN1CCCC(CCc2ccc(OC(F)(F)F)cc2)C1)c1ccc(Cl)cc1 (stereo not drawn) [compound 201]")
"< 1000 nM"
>>> assay_result("OC(CN1CCCC(CCc2ccc(C(F)(F)F)cc2)C1)C1(c2ccc(Cl)cc2)CCC1 (single isomer, unassigned) [compound 192]")
"< 1000 nM"
>>> assay_result("CC(Oc1ccc(C(F)(F)F)cc1)C1CCCN(CC2(c3ccc(Cl)cc3)CCC2)C1 (stereo not drawn) [compound 99]")
"< 1000 nM"
>>> assay_result("CC(O)(CN1CCC[C@@H](CCc2ccccc2)C1)c1ccc(Cl)cc1 (stereo partly drawn) [compound 197]")
"< 1000 nM"
>>> assay_result("COc1ccccc1C1(C(O)CN2CCCC(COc3ccc4c(c3)OCO4)C2)CCC1 (stereo not drawn) [compound 232]")
"< 1000 nM"
>>> assay_result("O=C(CN1CCCC(COc2ccccc2)C1)C1(c2ccc(Cl)cc2)CCC1 (stereo not drawn) [compound 20]")
"< 1000 nM"
>>> assay_result("O=C(CN1CCCC(COc2ccccc2)C1)c1ccc(Cl)cc1 (stereo not drawn) [compound 32]")
"< 1000 nM"
>>> assay_result("Fc1ccc(OC[C@@H]2CCCN(CC3(c4ccc(Cl)cc4)CCC3)C2)cc1 [compound 133]")
"< 1000 nM"
>>> assay_result("Clc1ccc(C2(CN3CCCC(COc4ccccc4)C3)CCC2)cc1 (stereo not drawn) [compound 4]")
"> 1000 nM"
>>> assay_result("OC(CN1CCCC(CCc2ccc(C(F)(F)F)cc2)C1)c1ccc(Cl)cc1 (single isomer, unassigned) [compound 152]")
"< 1000 nM"
>>> assay_result("OC(CN1CCC[C@@H](CCc2ccccc2)C1)c1ccc(Cl)cc1 (stereo partly drawn) [compound 233]")
"< 100 nM"
>>> assay_result("OC[C@H]1[C@@H](COc2ccc(C(F)(F)F)cc2)CCCN1CC1(c2ccc(Cl)cc2)CCC1 (single isomer, unassigned) [compound 131]")
"< 1000 nM"
>>> assay_result("CN(C)CC(Oc1ccc(C(F)(F)F)cc1)C1CCCN(CC2(c3ccc(Cl)cc3)CCC2)C1 (racemic) [compound 174]")
"< 1000 nM"
>>> assay_result("OC(CN1CCCC(CCc2ccc(C(F)(F)F)cc2)C1)C1(c2ccc(Cl)cc2)CCC1 (single isomer, unassigned) [compound 195]")
"< 1000 nM"
>>> assay_result("COc1ccc(C2(CN3CCC[C@@H](COc4ccc(OC(F)(F)F)cc4)C3)CCC2)cc1 [compound 170]")
"< 1000 nM"
>>> assay_result("OC(CN1CCCC(CCc2ccc(C(F)(F)F)cc2)C1)C1(c2ccc(Cl)cc2)CCC1 (single isomer, unassigned) [compound 193]")
"< 10 nM"
>>> assay_result("COc1ccc2[nH]cc(CCN3CCCC(COc4ccc(C(F)(F)F)cc4)C3)c2c1 (stereo not drawn) [compound 220]")
"< 1000 nM"
>>> assay_result("FC(F)(F)c1ccc(OCC2CCCN(CC3COc4ccccc4O3)C2)cc1 (single isomer, unassigned) [compound 177]")
"> 1000 nM"
>>> assay_result("O[C@@H](CN1CCC[C@H](COc2ccc(C(F)(F)F)cc2)C1)C1(c2ccc(Cl)cc2)CCC1 [compound 125]")
"< 100 nM"
>>> assay_result("OC(CN1CCCC(COc2ccc(C(F)(F)F)cc2)C1)C1(c2ccccc2OC(F)(F)F)CCC1 (single isomer, unassigned) [compound 227]")
"> 1000 nM"
>>> assay_result("COc1ccc(C2(CN3CCC[C@H](COc4ccc(OC(F)(F)F)cc4)C3)CCC2)cc1 [compound 171]")
"< 1000 nM"
>>> assay_result("COC(CN1CCC[C@@H](CCc2ccccc2)C1)c1ccc(Cl)cc1 (stereo partly drawn) [compound 196]")
"< 100 nM"
>>> assay_result("Clc1ccc(C2(CN3CCC[C@@H](CNc4ccccc4)C3)CCC2)cc1 [compound 28]")
"< 1000 nM"
>>> assay_result("FC(F)(F)c1ccc(OCC2CCCN(CC3COc4ccccc4O3)C2)cc1 (single isomer, unassigned) [compound 176]")
"> 1000 nM"
>>> assay_result("CO[C@@H](CN1CCC[C@H](COc2ccc(C(F)(F)F)cc2)C1)C1(c2ccc(Cl)cc2)CCC1 [compound 162]")
"> 1000 nM"
>>> assay_result("OC(CN1CCCC(COc2ccc(C(F)(F)F)cc2)C1)C1(c2ccc(OC(F)(F)F)cc2)CCC1 (stereo not drawn) [compound 206]")
"< 1000 nM"
>>> assay_result("OC[C@H]1[C@@H](COc2ccc(C(F)(F)F)cc2)CCCN1CC1(c2ccc(Cl)cc2)CCC1 (racemic) [compound 82]")
"< 1000 nM"
